Kindly state viability at 24 h, 10 µM for each of the entries shown.
Experiment: Cytotoxicity against mouse BV-2 cells assessed as cell viability at 10 uM measured after 24 hrs by MTT assay relative to control
Type: toxicity, cell-based
Details: read-out: Activity
One number for each entry, in %.

Dear reader, for each entry below, please note its viability at 24 h, 10 µM.
1. Fc1ccc(Cn2ccc3c(Nc4ccc5scnc5c4)ncnc32)c(Cl)c1
2. O=c1[nH]c2ccc(Nc3ncnc4c3ccn4Cc3ccc(F)cc3F)cc2[nH]1
3. O=c1[nH]c2ccc(Nc3ncnc4c3cnn4Cc3cc(F)cc(Cl)c3)cc2[nH]1
4. O=c1[nH]c2ccc(Nc3ncnc4c3ccn4Cc3c(F)cccc3Cl)cc2[nH]1
5. COc1cc(Cn2ccc3c(Nc4ccc5c(c4)CC(=O)N5)ncnc32)cc(OC)c1
6. O=C(Cn1ccc2c(Nc3ccc4[nH]c(=O)[nH]c4c3)ncnc21)N1CCOCC1
7. COc1ccc(Cn2ccc3c(Nc4ccc5[nH]c(=O)[nH]c5c4)ncnc32)cc1OC

Response:
[61.7, 98.2, 92.9, 77.2, 53, 102, 75.2]

Batch request: viability at 24 h, 10 µM per item, same order as input.
1. COc1cc(Cn2ccc3c(Nc4ccc5c(cnn5C)c4)ncnc32)cc(OC)c1
2. O=c1[nH]c2ccc(Nc3ncnc4c3ccn4Cc3ccccc3)cc2[nH]1
3. O=c1[nH]c2ccc(Nc3ncnc4c3ccn4Cc3cc(F)cc(Cl)c3)cc2[nH]1

Response:
62.5
99.7
104

---

Assay: Half life in rat at 20 mg/kg, po single dose
Format: ADME, organism-based
Conditions: in vivo
quantity: half-life (h)
Numbers only, in h.

Prompt: Query: half-life; subject: O=c1[nH]c2ccc(Nc3ncnc4c3ccn4Cc3ccc(F)cc3)cc2[nH]1
Response: 5.91

---

Test: Cmax in rat at 20 mg/kg, po single dose
Format: ADME, organism-based
Details: in vivo
quantity: Cmax (ng/mL)
One number for each entry, in ng/mL.

Prompt: Please look up its Cmax: O=c1[nH]c2ccc(Nc3ncnc4c3ccn4Cc3ccc(F)cc3)cc2[nH]1
Response: 7490

---

Assay: Cytotoxicity against mouse BV-2 cells assessed as cell viability at 10 uM measured after 24 hrs by MTT assay relative to control
Type: toxicity, cell-based
Conditions: read-out: Activity
The threshold is 70%. Values of viability at 24 h, 10 µM beneath it are tagged satisfied; values meeting or exceeding it are tagged not satisfied.

Please review the following examples before continuing.
[
  {
    "smiles.record": "O=c1[nH]c2ccc(Nc3ncnc4c3ccn4Cc3cc(F)ccc3F)cc2[nH]1",
    "assigned.class": "satisfied"
  },
  {
    "smiles.record": "O=c1[nH]c2ccc(Nc3ncnc4c3ccn4Cc3c(Cl)cccc3Cl)cc2[nH]1",
    "assigned.class": "satisfied"
  },
  {
    "smiles.record": "Cc1cccc(Cn2ccc3c(Nc4ccc5[nH]c(=O)[nH]c5c4)ncnc32)c1",
    "assigned.class": "satisfied"
  },
  {
    "smiles.record": "O=C(Cn1ccc2c(Nc3ccc4[nH]c(=O)[nH]c4c3)ncnc21)c1ccccc1",
    "assigned.class": "not satisfied"
  },
  {
    "smiles.record": "O=c1[nH]c2ccc(Nc3ncnc4c3cnn4Cc3cc(Cl)cc(Cl)c3)cc2[nH]1",
    "assigned.class": "satisfied"
  },
  {
    "smiles.record": "COc1cc(Cn2ccc3c(Nc4ccc5[nH]c(=O)oc5c4)ncnc32)cc(OC)c1",
    "assigned.class": "satisfied"
  },
  {
    "smiles.record": "O=c1[nH]c2ccc(Nc3ncnc4c3cnn4Cc3ccc(Cl)cc3F)cc2[nH]1",
    "assigned.class": "satisfied"
  },
  {
    "smiles.record": "O=c1[nH]c2ccc(Nc3ncnc4c3ccn4Cc3cccc4cccnc34)cc2[nH]1",
    "assigned.class": "not satisfied"
  },
  {
    "smiles.record": "O=c1[nH]c2ccc(Nc3ncnc4c3ccn4Cc3ccc(F)cc3Cl)cc2o1",
    "assigned.class": "not satisfied"
  },
  {
    "smiles.record": "O=c1[nH]c2ccc(Nc3ncnc4c3ccn4Cc3cccc(F)c3Cl)cc2[nH]1",
    "assigned.class": "satisfied"
  }
]

Prompt: Please let me know if O=c1[nH]c2ccc(Nc3ncnc4c3ccn4Cc3cccc4ccccc34)cc2[nH]1 shows viability at 24 h, 10 µM below 70%.
Response: satisfied

Prompt: Now consider O=c1[nH]c2ccc(Nc3ncnc4c3ccn4Cc3cccc(Cl)c3F)cc2[nH]1 .
Response: not satisfied

Prompt: Query O=c1[nH]c2ccc(Nc3ncnc4c3ccn4Cc3ccc(I)cc3)cc2[nH]1 next
Response: not satisfied

Prompt: Next record, please: COc1cc(Cn2ccc3c(Nc4ccc5cn[nH]c5c4)ncnc32)cc(OC)c1
Response: not satisfied

Prompt: For O=c1[nH]c2ccc(Nc3ncnc4c3ccn4Cc3ccc(F)c(Cl)c3)cc2[nH]1 then?
Response: satisfied

Prompt: Try the molecule O=c1[nH]c2ccc(Nc3ncnc4c3ccn4Cc3ccc(F)cc3)cc2[nH]1
Response: not satisfied

Prompt: // query: O=c1[nH]c2ccc(Nc3ncnc4c3cnn4Cc3cccc(F)c3Cl)cc2[nH]1
Response: not satisfied

Prompt: Similarly, Fc1ccc(Cn2ccc3c(Nc4ccc5cn[nH]c5c4)ncnc32)c(Cl)c1 ?
Response: not satisfied
